Value source: patent US20260285998

- ASSAYED_TARGET: T1, human BCMA-Fc (human)
- T1 chain: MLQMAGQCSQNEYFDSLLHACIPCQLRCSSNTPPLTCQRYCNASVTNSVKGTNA
- TEST: SPR, 25C
ASSAY_METRIC: pKd
Give bare numbers, as −log10 of the molar value.

BINDER	pKd
P1AG5031 (54_VH2a/VL2a) (antibody, V domains shown) VH: EVQLLESGGGLVQPGGSLRLSCAASGFTFSNAWMDWVRQAPGKGLEWVSQITAKSNNYATYYADSVKGRFTISRDNSKNTLYLQMNSLRAEDTAVYYCTDDGYHWGQGTLVTVSS VL: DIQMTQSPSSLSASVGDRVTITCRASEDIRNGLAWYQQKPGKAPKLLIYNANSLHTGVPSRFSGSGSGTDFTLTISSLQPEDFATYYCEDTSKYPYTFGQGTKLEIK	8.62
P1AG5067 (54_VH1a/VL1a_L1_pGL) (antibody, V domains shown) VH: EVQLVESGGGLVKPGGSLRLSCAASGFTFSNAWMDWVRQAPGKGLEWVGQITAKSNNYATYYAAPVKGRFTISRDDSKNTLYLQMNSLKTEDTAVYYCTDDGYHWGQGTLVTVSS VL: AIQMTQSPSSLSASVGDRVTITCRASEDIRNDLGWYQQKPGKAPKLLIYNANSLHTGVPSRFSGSGSGTDFTLTISSLQPEDFATYYCEDTSKYPYTFGQGTKLEIK	8.47
P1AG5021 (E04_VH1b/VL1g) (antibody, V domains shown) VH: QVQLVQSGAEVKKPGASVKVSCKASGYTFTNYWMHWVRQAPGQGLEWMGIIHPNSGSTNYNEKFQGRVTMTVDKSTSTVYMELSSLRSEDTAVYYCARGIYDYPFAYWGQGTLVTVSS VL: DIQMTQSPSSLSASVGDRVTITCRASESVSIHGTHLMHWYQQKPGKAPKLLIYAASNLESGVPSRFSGSGSGTDFTLTISSLQPEDFATYFCQQSIEDPYTFGGGTKVEIK	8.55
P1AG5076 (E04_VH1b/VL1h) (antibody, V domains shown) VH: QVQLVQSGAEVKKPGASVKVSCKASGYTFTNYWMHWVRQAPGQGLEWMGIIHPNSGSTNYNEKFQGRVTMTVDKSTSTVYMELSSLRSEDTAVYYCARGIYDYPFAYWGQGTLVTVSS VL: DIQMTQSPSSLSASVGDRVTITCRASESVSIHGTHLMHWYQQKPGKAPKLLIYAASNLESGVPSRFSGSGSETDFTLTISSLQPEDFATYFCQQSIEDPYTFGGGTKVEIK	8.72

Alright, here's another binder for you.
Challenge: Requested read-out: pKd. Entry: P1AG5061 (54 parental) (antibody, V domains shown) VH: EVQLVESGGGLVKPGESLRLSCAASGFTFSNAWMDWVRQAPGKRLEWIAQITAKSNNYATYYAAPVKGRFTISRDDSKNTLYLQMNSLKKEDTAVYYCTDDGYHWGQGTLVTVSS VL: AIQMTQSPSSLSASVGDRVTIACRASEDIRNGLAWYQQKPGKAPKLLIYNANSLHTGVPSRFSGSGSGTDFTLTISSLQPEDEAIYYCEDTSKYPYTFGQGTKLEIK
Response given: 8.85
